What Ratio caecum / ileum (concentration) was measured for each of the following?
Test: UPLC-MS/MS quantification of berberine and metabolites in ileal and caecal content
Format: in vivo, Ross 308 broiler chickens
Settings: 1 g berberine/kg feed, 21 days
Response field accepts a number only; no unit should be typed.

-- ask Give a short answer stating reported Ratio caecum / ileum (concentration) for "COc1ccc2cc3[n+](cc2c1OC)CCc1cc(O)c(O)cc1-3" .
-- reply 32.10

-- ask Please list Ratio caecum / ileum (concentration) recorded for the molecule COc1ccc2cc3[n+](cc2c1O)CCc1cc2c(cc1-3)OCO2 [Berberrubine, berberrubine chloride]
-- reply 63.80

-- ask Given the molecule COc1ccc2cc3[n+](cc2c1OC)CCc1cc2c(cc1-3)OCO2 [Berberine, Berberine chloride] , write its reported Ratio caecum / ileum (concentration).
-- reply 0.22

-- ask Query Ratio caecum / ileum (concentration) for "COc1cc2c(cc1O)-c1cc3ccc(OC)c(OC)c3c[n+]1CC2"
-- reply 0.44

-- ask Supply reported Ratio caecum / ileum (concentration) belonging to this molecule: "COc1c(O)ccc2cc3[n+](cc12)CCc1cc2c(cc1-3)OCO2"
-- reply 21.17

-- ask Given "COc1ccc2cc3n(c(=O)c2c1OC)CCc1cc2c(cc1-3)OCO2" , respond with its Ratio caecum / ileum (concentration).
-- reply 0.95

-- ask Item COc1ccc2c(c1OC)CN1CCc3cc4c(cc3C1=C2)OCO4 [Dihydroberberine, dihydroberberine] : provide Ratio caecum / ileum (concentration)
-- reply 0.44

-- ask Identify Ratio caecum / ileum (concentration) associated with the molecule COc1cc2c(cc1O)CC[n+]1cc3c(OC)c(OC)ccc3cc1-2 [Jatrorrhizine, Jatrorrhizine chloride]
-- reply 0.72
